The following binders are shown together with reported IC50 (µg/ml) with constrains values.
# experimental-target: HIV Env of isolate BJOX025000.01.1 (clade AE) (HIV)
# measurement-notes: cell-based or functional assay
assay-endpoint: IC50 (µg/ml) with constrains (µg/mL)

binder	recorded-value
PGDM1400 (antibody, V domains shown) VH: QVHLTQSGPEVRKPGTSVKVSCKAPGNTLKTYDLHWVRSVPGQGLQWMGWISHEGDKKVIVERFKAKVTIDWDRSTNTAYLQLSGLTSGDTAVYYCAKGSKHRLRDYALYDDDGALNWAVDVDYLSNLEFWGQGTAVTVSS VL: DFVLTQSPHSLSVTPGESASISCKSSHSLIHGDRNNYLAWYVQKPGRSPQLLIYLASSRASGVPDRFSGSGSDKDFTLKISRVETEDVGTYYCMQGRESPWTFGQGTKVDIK	0.055
ePGDM5 (antibody, V domains shown) VH: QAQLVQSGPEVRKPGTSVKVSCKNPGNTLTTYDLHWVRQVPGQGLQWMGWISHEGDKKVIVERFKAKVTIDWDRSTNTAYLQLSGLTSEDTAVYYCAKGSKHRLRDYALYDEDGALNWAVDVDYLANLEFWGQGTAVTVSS VL: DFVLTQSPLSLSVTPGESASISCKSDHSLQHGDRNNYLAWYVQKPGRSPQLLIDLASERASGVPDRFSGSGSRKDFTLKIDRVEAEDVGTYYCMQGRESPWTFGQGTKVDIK	0.018
ePGDM13 (antibody, V domains shown) VH: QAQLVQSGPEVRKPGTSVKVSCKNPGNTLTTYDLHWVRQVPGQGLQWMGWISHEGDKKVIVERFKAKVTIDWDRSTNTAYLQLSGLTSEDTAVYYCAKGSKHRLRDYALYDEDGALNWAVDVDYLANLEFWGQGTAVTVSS VL: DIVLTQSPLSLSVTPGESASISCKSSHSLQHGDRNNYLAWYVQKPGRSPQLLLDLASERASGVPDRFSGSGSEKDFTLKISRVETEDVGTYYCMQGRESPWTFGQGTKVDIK	0.018
ePGDM9 (antibody, V domains shown) VH: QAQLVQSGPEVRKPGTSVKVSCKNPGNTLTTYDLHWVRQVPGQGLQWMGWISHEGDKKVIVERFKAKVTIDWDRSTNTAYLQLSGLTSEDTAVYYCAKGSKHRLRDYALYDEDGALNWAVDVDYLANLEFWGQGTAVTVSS VL: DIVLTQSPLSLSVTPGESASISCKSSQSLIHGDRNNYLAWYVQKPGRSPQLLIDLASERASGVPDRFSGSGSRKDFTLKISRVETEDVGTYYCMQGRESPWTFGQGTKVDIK	0.018
